The values you see were collected from patent US6001809A.

# assay.target: VLA-4 integrin interaction with VCAM-1 (Homo sapiens, UniProt P05556+P13612)
# Construct: endogenous in cells; host or cells: Jurkat cells (VLA-4)
# Sequence (P13612 34-1032): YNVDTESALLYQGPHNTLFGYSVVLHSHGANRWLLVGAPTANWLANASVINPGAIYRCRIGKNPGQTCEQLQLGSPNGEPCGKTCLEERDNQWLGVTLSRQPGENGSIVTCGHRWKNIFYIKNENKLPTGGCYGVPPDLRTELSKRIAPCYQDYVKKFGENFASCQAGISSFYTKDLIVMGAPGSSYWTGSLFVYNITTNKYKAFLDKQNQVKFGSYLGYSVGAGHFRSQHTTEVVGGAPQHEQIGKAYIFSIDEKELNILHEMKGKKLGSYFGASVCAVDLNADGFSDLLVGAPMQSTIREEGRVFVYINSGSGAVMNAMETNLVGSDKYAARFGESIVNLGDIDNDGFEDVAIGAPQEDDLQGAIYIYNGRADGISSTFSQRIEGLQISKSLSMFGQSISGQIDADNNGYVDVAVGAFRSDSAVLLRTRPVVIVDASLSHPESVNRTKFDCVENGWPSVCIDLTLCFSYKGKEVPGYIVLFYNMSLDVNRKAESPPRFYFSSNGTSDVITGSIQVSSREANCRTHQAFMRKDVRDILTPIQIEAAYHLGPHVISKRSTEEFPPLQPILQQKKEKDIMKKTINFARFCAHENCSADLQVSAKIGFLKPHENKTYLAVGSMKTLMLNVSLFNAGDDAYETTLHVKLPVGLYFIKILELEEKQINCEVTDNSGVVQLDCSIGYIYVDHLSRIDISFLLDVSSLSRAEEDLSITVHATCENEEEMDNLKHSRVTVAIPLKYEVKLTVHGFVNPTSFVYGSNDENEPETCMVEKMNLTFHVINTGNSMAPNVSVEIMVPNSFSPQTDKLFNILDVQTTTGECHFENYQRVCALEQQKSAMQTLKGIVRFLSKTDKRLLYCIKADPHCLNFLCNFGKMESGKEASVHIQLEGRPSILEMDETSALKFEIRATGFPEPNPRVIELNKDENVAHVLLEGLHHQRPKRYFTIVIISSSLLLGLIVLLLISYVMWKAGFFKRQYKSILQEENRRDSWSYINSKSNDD
# Sequence (P05556 21-798): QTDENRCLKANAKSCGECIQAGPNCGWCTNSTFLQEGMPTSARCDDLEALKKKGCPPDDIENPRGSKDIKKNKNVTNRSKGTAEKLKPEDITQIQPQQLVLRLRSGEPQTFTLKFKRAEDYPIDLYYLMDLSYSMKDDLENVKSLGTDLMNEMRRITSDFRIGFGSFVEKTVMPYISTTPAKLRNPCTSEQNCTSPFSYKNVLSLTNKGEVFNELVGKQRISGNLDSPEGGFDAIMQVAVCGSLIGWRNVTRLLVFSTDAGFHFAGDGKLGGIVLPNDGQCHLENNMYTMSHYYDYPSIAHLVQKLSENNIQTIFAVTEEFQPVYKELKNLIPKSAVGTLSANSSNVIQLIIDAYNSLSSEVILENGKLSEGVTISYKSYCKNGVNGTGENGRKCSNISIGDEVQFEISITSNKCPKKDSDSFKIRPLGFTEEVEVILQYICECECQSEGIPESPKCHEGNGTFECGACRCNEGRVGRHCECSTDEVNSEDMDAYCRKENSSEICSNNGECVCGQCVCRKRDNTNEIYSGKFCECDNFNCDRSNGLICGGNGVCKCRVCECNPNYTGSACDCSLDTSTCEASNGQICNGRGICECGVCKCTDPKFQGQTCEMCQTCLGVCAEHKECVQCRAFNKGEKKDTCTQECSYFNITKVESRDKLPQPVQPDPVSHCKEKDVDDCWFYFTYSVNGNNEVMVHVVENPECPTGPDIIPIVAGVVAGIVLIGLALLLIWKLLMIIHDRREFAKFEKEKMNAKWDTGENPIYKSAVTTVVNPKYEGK
# assay.summary: Jurkat interaction with soluble VCAM-1 (sVCAM-1-IgG), FACS assay
# Assay type: cell-based
# details: per Example 6: inhibition of Jurkat interaction with sVCAM-1-IgG, FACS, Mn+2 and 15/7 present; read-out: IC50
Ends that are not written are not given here.
quantity.measured: IC50

Q: Which IC50 is reported for this substance? Ac-EGYYGNYGVYA [SEQ ID No. 4, [Ac]EGYYGNYGVYA]
Result: ≤ 50 µM
